Target: T1, Mutant 4 of human SPNS2 (FLAG tag inserted in extracellular loop 11) (human, UniProt Q8IVW8 1-549)
T1 construct: on HEK293 cells; also called extracellular loop 11 mutant
T1 sequence: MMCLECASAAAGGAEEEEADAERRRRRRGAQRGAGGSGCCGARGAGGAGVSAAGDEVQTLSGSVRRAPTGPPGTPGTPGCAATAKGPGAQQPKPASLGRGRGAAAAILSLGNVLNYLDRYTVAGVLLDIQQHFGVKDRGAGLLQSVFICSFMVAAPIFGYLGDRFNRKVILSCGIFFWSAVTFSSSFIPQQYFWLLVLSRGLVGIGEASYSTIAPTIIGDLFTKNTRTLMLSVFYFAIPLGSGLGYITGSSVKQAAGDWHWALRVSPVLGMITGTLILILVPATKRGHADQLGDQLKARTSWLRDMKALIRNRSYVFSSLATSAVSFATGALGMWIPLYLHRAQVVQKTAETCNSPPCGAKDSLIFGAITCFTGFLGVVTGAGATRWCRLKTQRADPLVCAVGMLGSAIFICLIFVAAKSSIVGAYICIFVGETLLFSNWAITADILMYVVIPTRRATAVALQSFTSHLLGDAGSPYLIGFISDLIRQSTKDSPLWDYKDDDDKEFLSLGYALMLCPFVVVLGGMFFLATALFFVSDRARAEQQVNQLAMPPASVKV
Assay: flow cytometry, FLAG-insertion mutant
readout-kind: FITC+/Alexa 647+ cell rate ratio

{"columns": ["binder", "readout-kind", "result"],
 "data": [
  ["37-0511F (antibody, IgG2b, V domains shown) VH: EVHLQQSGAALVRPRASVKLSCKVSGDSISRYYVHFVKQRPGQGLEWIGRIDPEDDTTKYSEKFKNRATLTADASSDTASLILSGLTSDDTATYFCSTLTGLDYWGQGVMVTVSS VL: DIQMTQSPPVLSTSVGDRVTLRCKPSQNVHSKLDWYQQKHGEAPKLLIYYTHNLQTGIPSRFSGSGSGTDYTLTISSLQPEDVATYYCFQYYSGWTFGGGTKLEMKR", "FITC+/Alexa 647+ cell rate ratio", "≥ 0.5 ratio"],
  ["49-0703G (antibody, IgG2b, V domains shown) VH: EVQLVESGGGLVQPGRSMKLSCAASGFTFSNHYMAWVRQAPTKGLEWVASISTGGGNTYYRDSVKGRFTISRDNAKSTLYLQMDSLRSEDTATYYCARQDYSNYMGGFAYWGQGTLVTVSS VL: QFVLTQPNSVSTNLGSTVKLSCKRSTGNIGNNYVNWYQQYEGRSPTTMIYRDDERPDGVPDRFSGSIDRSSNSALLTINNVQTEDEADYFCQSFSNGMFIFAGGTQLTVL", "FITC+/Alexa 647+ cell rate ratio", "≥ 0.5 ratio"]
]}

Here is another binder to look at.
Ask: Please give the documented FITC+/Alexa 647+ cell rate ratio of 96-1403F (antibody, IgG2b, V domains shown) VH: EVQLVETGGGLVRPGSSLKLSCATSGFTFSDTWMSWVRQAPGKGLEWVALIKDKNSNSEANYAESIKGRFTISRDDSKSRVYLQMNTLRDQDTATYYCTRHEDFYYYSGYYFDYWGQGVMVTVSS VL: DIVLTQSPPTLSVTPGESVSLSCRASQGISTSIHWYQQRSNESPRLLIKYASQSIAGIPSRFSGSGSGTDFILSINRVESEDFSVYYCQQTYSLPLTFGPGTKLEVKR
Reply: ≥ 0.5 ratio
